# log10 of IC50 annotations
system: RAW264.7; assay: Anti-inflammatory activity in Mus musculus (mouse) RAW264.7 cells assessed as inhibition of IFN-gamma/LPS-induced NO production after 17 to 20 hr by Griess assay; type: functional, cell-based; conditions: read-out: pIC50 (converted)
On a log10 scale: recorded IC50, unit µM.

Qu. Any idea what its log10 of IC50 is? The molecule is COc1cc(OC)c(/C=C/C(=O)c2ccc(C)o2)c(OC)c1
Ans. 0.75

Qu. Recorded log10 of IC50 for COc1ccc(OC)c(/C=C/C(=O)c2ccc(C)o2)c1 , please?
Ans. 0.40

Qu. Item under review: O=C(/C=C/c1ccc(O)cc1)c1ccco1 . Reported log10 of IC50?
Ans. 1.40

More entries:
Qu. Endpoint output: log10 of IC50 of COc1ccc(/C=C/C(=O)c2ccc(C)o2)c(OC)c1OC . Value?
Ans. 0.65

Qu. Item under review: Cc1ccc(C(=O)/C=C/c2ccc(Cl)cc2)o1 . Reported log10 of IC50?
Ans. 1.06

Qu. May I ask what log10 of IC50 has been recorded for Cc1ccc(C(=O)/C=C/c2cccc(Cl)c2)o1 ?
Ans. 0.89

Qu. Would you kindly share the measured log10 of IC50 for Cc1ccc(C(=O)/C=C/c2ccccc2O)o1 ?
Ans. 0.84

Qu. So what does the record say about log10 of IC50 for Cc1ccc(C(=O)/C=C/c2ccc([N+](=O)[O-])cc2)o1 ?
Ans. 1.16

Qu. Need log10 of IC50 of COc1cccc(OC)c1/C=C/C(=O)c1ccc(C)o1 , thanks.
Ans. 0.81
